Target: T1, recombinant human midkine (huMK) (human, UniProt P21741 21-143)
T1 sequence (looked up): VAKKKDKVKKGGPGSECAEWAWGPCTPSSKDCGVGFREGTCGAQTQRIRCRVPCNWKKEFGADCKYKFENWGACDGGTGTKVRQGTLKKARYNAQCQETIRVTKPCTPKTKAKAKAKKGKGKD
Assay: cell-based or functional assay
measure: % Inhibition of UMR106 cell migration, Assay 6 (%)
Value expressed in %; do not type the unit.

binder	number
IP14-H5L8 (antibody, V domains shown, also called hIP14-H5L8; Hv5 Lv8) VH: QVQLVQSGGGLVQPGGSLRLSCAASGQSFSSYWMNWVRQAPGQGLEWIGMIHPSDSETILNQKFKDKATLTVDISKNTAYLQMNSLRAEDTAVYYCSSWSAKRGDFWGQGTLVTVSS VL: DIVLTQSPATLSLSPGERATLSCRASESISNNLHWYQQKPHQAPRLLIYYASQSISGVPARFSGSGSGTDFTLTISSVEPEDFAVYYCQQSNSWPLTFGQGTKVEIKR	31
IP14-H6L8 (antibody, V domains shown, also called hIP14-H6L8; Hv6 Lv8) VH: QVQLVQSGGGLVKPGHSLRLSCAASGQSFSSYWMNWVRQAPGKGLEWIGMIHPSDSETILNQKFKDKATLSVDIAKNSAYLQMNSLRAEDTAVYYCSSWSAKRGDFWGQGTLVTVSS VL: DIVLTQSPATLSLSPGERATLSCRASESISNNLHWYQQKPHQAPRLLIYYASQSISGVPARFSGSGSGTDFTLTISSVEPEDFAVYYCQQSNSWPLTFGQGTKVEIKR	48

*Q* Tell us which % Inhibition of UMR106 cell migration, Assay 6 value is on record for IP14-H6L3 (antibody, V domains shown, also called hIP14-H6L3; Hv6 Lv3) VH: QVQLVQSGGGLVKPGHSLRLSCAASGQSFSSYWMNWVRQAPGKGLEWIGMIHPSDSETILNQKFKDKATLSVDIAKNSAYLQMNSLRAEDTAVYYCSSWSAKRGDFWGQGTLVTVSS VL: DIVLTQSPATLSLSPGERATLSCRASESISNNLHWYQQKPGQAPRLLIYYASQSISGIPARFSGSGPGTDFTLTISSLEPEDFAVYYCQQSNSWPLTFGGGTKLEIKR
*A* 45

*Q* Tell us which % Inhibition of UMR106 cell migration, Assay 6 value is on record for murine IP14 precursor antibody (antibody, V domains shown, Murine monoclonal antibody; also called mIP14; mAb IP14) VH: QVQLQQPGAELVRPGHSVKLSCKASGQSFSSYWMNWVRQRPGQGLEWIGMIHPSDSETILNQKFKDKATLTVDISSNTAYMQLSSPTSEDSAVYFCSSWSAKRGDFWGQGTTLTVSS VL: DIVLTQSPATLSVTPGDSVNLSCRASESISNNLHWYQQKSHESPRLLIKYASQSISGIPSRFSGSGSGTDFNLSVNSVETEDFGMYFCQQSNSWPLTFGAGTKLELKR
*A* 38
